Test system: Aβ43
assay overview: Aβ43 in FAD1 iPS cell-derived nerve cells (secondary screening)
Type: cell-based, human
Threshold-based label: Aβ43 under 0.9 gives yes, Aβ43 not under 0.9 gives no.

Here's an entry: Nc1ccn([C@@H]2O[C@H](CO)[C@@H](O)[C@@H]2O)c(=O)n1 . Is its Aβ43 below 0.9? yes

# strict comparison: is reported Aβ43 < 0.9? input = CCN(CC)CCOC(=O)C1(C2CCCCC2)CCCCC1 yes

Is it true that Aβ43 reported for CN(C/C=C/C#CC(C)(C)C)Cc1cccc2ccccc12 is less than 0.9? no

Lab note: Aβ43 threshold 0.9. Does this compound come in strictly under it? CC(=O)Nc1ccc(OC(C)=O)cc1 [compound 68, DIACETAMATE] no

Decide: Aβ43 of NCCc1ccc(O)c(O)c1 strictly below 0.9? no

Please check: Aβ43 for Cc1cc(CC(=O)O)n(C)c1C(=O)c1ccc(Cl)cc1 [compound 65, ZOMEPIRAC] , strictly under 0.9 or not? yes

Check if Aβ43 falls below 0.9 for CCCCOC(=O)c1ccc(O)cc1 . yes

Check if Aβ43 falls below 0.9 for O=c1c2ccccc2[se]n1-c1ccccc1 . no
